# Tested on: biotinyl-Phe-oxazolone
# test: self-aminoacylation, catalytic enhancement (BFO) (fold over background); higher = more active; k-Seq, kA / k0A0; sequences stand for … in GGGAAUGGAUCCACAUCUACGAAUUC…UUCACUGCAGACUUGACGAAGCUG
This sample holds only a part of the variants without activity.
measured property: self-aminoacylation
A bare number is all that is needed in reply.

Below are worked cases with known answers.
INSERT INTO results (input_sequence, value_reported) VALUES
  ('AAGUUUCCUAAAAGUCGCAAG [Fam3.1 aminoacylation ribozyme variant]', 2.23),
  ('AUUCACCUGAGUCAUCGGGUG [Fam2.2 aminoacylation ribozyme variant]', 35.9),
  ('AUUCACCUUGUUCAUCGGGUG [Fam2.2 aminoacylation ribozyme variant]', 15.2),
  ('GUACUUCAAACAAUCGGGCUG [Fam1A.1 aminoacylation ribozyme variant]', 21.1),
  ('AAGUCAGCUAAUAGUCGCAAG [Fam3.1 aminoacylation ribozyme variant]', 5.28);

Incoming: Entry CUUCACUUCAAGCAAUCGGUC [Fam1B.1 aminoacylation ribozyme variant] has what self-aminoacylation?
Outgoing: 46.4

Incoming: Which self-aminoacylation is reported for this sequence? CUAAUUCAAACAAUCGGUCUC [Fam1A.1 aminoacylation ribozyme variant]
Outgoing: 6.39

Incoming: Give the measured self-aminoacylation of ACACACUUCAAGCAAUCGUUC [Fam1B.1 aminoacylation ribozyme variant] .
Outgoing: 1.43

====

# Test system: biotinyl-Met-oxazolone
# test: self-aminoacylation, catalytic enhancement (BMO) (fold over background); higher = more active; k-Seq, kA / k0A0; sequences stand for … in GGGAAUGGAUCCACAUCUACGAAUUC…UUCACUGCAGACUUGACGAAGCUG
Variants at the floor of the assay were thinned out.
measured property: self-aminoacylation
Give your answer as a number; write no unit.

Example entries begin here.
INSERT INTO measurements (input_sequence, tested_system, measured_property, value_reported) VALUES
  ('AAGUUCGCUAAUAGUCGCUAG [Fam3.1 aminoacylation ribozyme variant]', 'biotinyl-Met-oxazolone', 'self-aminoacylation', 1.53),
  ('CUACUUCAAACAAUAGGUCUC [Fam1A.1 aminoacylation ribozyme variant]', 'biotinyl-Met-oxazolone', 'self-aminoacylation', 0.535),
  ('AUUUCCCAGGUCAUCGAGUGA [Fam2.1 aminoacylation ribozyme variant]', 'biotinyl-Met-oxazolone', 'self-aminoacylation', 5.06),
  ('AUUCACAUAGGUCAUCGGGUG [Fam2.2 aminoacylation ribozyme variant]', 'biotinyl-Met-oxazolone', 'self-aminoacylation', 8.47),
  ('GUUCAACUAGGUCAUCGGGUG [Fam2.2 aminoacylation ribozyme variant]', 'biotinyl-Met-oxazolone', 'self-aminoacylation', 5.04),
  ('GUACUUCAAACAAUCGCUCUG [Fam1A.1 aminoacylation ribozyme variant]', 'biotinyl-Met-oxazolone', 'self-aminoacylation', 1.91),
  ('UUACUUUAAACAAUCGGUCUG [Fam1A.1 aminoacylation ribozyme variant]', 'biotinyl-Met-oxazolone', 'self-aminoacylation', 1.38);

Would you kindly look at the next entry?
Incoming: Look at this sequence and give its reported self-aminoacylation. CUUCACUUCAAGCAAUCGGUC [Fam1B.1 aminoacylation ribozyme variant]
Outgoing: 1.16

====

Here, each record is paired with measured self-aminoacylation data.
# Test system: biotinyl-Phe-oxazolone
# test: self-aminoacylation, catalytic enhancement (BFO) (fold over background); higher = more active; k-Seq, kA / k0A0; sequences stand for … in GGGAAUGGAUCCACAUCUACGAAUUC…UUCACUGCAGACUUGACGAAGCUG
Fewer inactive variants are shown than the library holds.
Keep the answer to the number alone.

INSERT INTO assay_data (input_sequence, tested_system, value_reported) VALUES
  ('CCACACUUCAAACAAUCCGUC [Fam1B.1 aminoacylation ribozyme variant]', 'biotinyl-Phe-oxazolone', 1.35),
  ('UCACACUUCAAACAAUCGGUC [Fam1B.1 aminoacylation ribozyme variant]', 'biotinyl-Phe-oxazolone', 89.1),
  ('AAGUUUGCUAAUAGUCGCGGG [Fam3.1 aminoacylation ribozyme variant]', 'biotinyl-Phe-oxazolone', 19.6);

Incoming: Given CUACUUCAAACAAUCGGUGUA [Fam1A.1 aminoacylation ribozyme variant] , state its recorded self-aminoacylation.
Outgoing: 1.33

Incoming: Sample AUUUACCUAGGUCAUAGGGUG [Fam2.2 aminoacylation ribozyme variant] — what was its self-aminoacylation?
Outgoing: 1.34

Incoming: Given the sequence CAACACUUCAAGCAAUGGGUC [Fam1B.1 aminoacylation ribozyme variant] , what is its reported self-aminoacylation?
Outgoing: 0.677

Incoming: Bench note: what self-aminoacylation did CGACUUCAAACAAUCGGGCUG [Fam1A.1 aminoacylation ribozyme variant] show?
Outgoing: 10.4

Incoming: What value of self-aminoacylation has been recorded for this entry: CUACUUUAAACAAUCGGUCGG [Fam1A.1 aminoacylation ribozyme variant]
Outgoing: 0.521

From: the supplement of paper PMC9233669
